What IC50 was measured for each of the following?
- ASSAYED_SYSTEM: recombinant RSV complex (Human respiratory syncytial virus A)
- MEASUREMENT_NOTES: RSV Polymerase Inhibition Assay
- Assay type: biochemical

Example results:
[[record]]
compound = "CNCC(O)(CNC(=O)c1ccc(OCCO)c(OC)c1)c1ccc(OC)c(-c2ccc(F)c(Cl)c2)n1 (centres unmarked)"
experimental_result = "< 10000 nM"

[[record]]
compound = "C#CC(O)(CNC(=O)c1ccc(OCCF)c(OC)c1)c1ccc(OC)c(-c2ccc(F)c(Cl)c2)n1 (centres unmarked)"
experimental_result = "< 1000 nM"

[[record]]
compound = "COc1cc(C(=O)NCC(C)(OC)c2ccc(OC)c(-c3ccc(F)c(Cl)c3)n2)ccc1OCC(F)F (centres unmarked)"
experimental_result = "< 1000 nM"


List IC50 for every entry below, keeping the order given.
1. COc1cc(-c2cc(C(C)(C)N)cc(C(O)(CNC(=O)c3ccc(OCCO)c(OC)c3)C(F)(F)F)n2)ccn1 (centres unmarked)
2. COc1cc(C(=O)NCC(O)(c2cc3c(c(-c4ccc(Cl)cc4)n2)OCC3(C)N)C(F)(F)F)ccc1CO[C@@H](C)O (some centres unmarked)
3. COc1cc(C(=O)NCC2(c3ccc(OC)c(-c4ccc(F)c(Cl)c4)n3)CNC(=O)O2)ccc1OCCO (centres unmarked)
4. COc1cc(C(=O)NCC(O)(CC2CNC2)c2ccc(OC)c(-c3ccc(F)c(Cl)c3)n2)ccc1OC1CC1 (centres unmarked)
5. COc1cc(C(=O)NCC(O)(c2cc(C(C)(C)N)c(OC)c(-c3ccc(F)cc3)n2)C(F)(F)F)ccc1OC1CC1 (centres unmarked)
6. COc1cc(C(=O)NCC(O)(c2cc3c(c(-c4ccc(F)cc4)n2)OCC3(C)N)C(F)(F)F)ccc1OCC(N)=O (centres unmarked)

Result ::
["< 10000 nM", "< 1000 nM", "< 100000 nM", "< 1000 nM", "< 1000 nM", "< 1000 nM"]

* * *

Give measured CC50 at 5 days for each item. Keep answers brief.
- MEASUREMENT_NOTES: Cytotoxicity Determination (CCK-8, without addition of virus)
- Assay type: cell-based
- CONDITION_LABEL: human, 50% cytotoxicity concentration (CC50)

[[record]]
compound = "COc1cc(C(=O)NCC(O)(c2cc(CN)cc(-c3ccc(F)c(Cl)c3)n2)C(F)(F)F)ccc1OC[C@@H](C)O (some centres unmarked) [Compound 357]"
measurement_kind = "CC50 at 5 days"
experimental_result = "10 to 100 µM"

[[record]]
compound = "COc1ccc(C(O)(CNC(=O)c2ccc3c(c2)ncn3C)C(F)(F)F)nc1-c1ccc(F)c(Cl)c1 (centres unmarked) [Compound 265]"
measurement_kind = "CC50 at 5 days"
experimental_result = "10 to 100 µM"

[[record]]
compound = "COc1cc(C(=O)NCC(O)(c2cc3c(c(-c4c[nH]c5c(F)cccc45)n2)OCC3)C2CC2)ccc1OCCO (centres unmarked) [Compound 297]"
measurement_kind = "CC50 at 5 days"
experimental_result = "10 to 100 µM"

[[record]]
compound = "COc1cc(C(=O)NCC(O)(c2cc3c(c(-c4ccc(F)c(Cl)c4)n2)OCC3(C)N)C(F)(F)F)ccc1OCCO (centres unmarked) [Compound 638]"
measurement_kind = "CC50 at 5 days"
experimental_result = "10 to 100 µM"

[[record]]
compound = "COc1cc(C(=O)NCC(O)(Cn2ccnc2)c2ccc(OC)c(-c3ccc(F)c(Cl)c3)n2)ccc1OCCO (centres unmarked) [Compound 191]"
measurement_kind = "CC50 at 5 days"
experimental_result = "> 100 µM"

[[record]]
compound = "COc1cc(C(=O)NCC(O)(Cn2ccnc2)c2cc3c(c(-c4ccc(F)c(Cl)c4)n2)OCC3(C)C)cc2cccnc12 (centres unmarked) [Compound 226]"
measurement_kind = "CC50 at 5 days"
experimental_result = "10 to 100 µM"

[[record]]
compound = "COc1cc(C(=O)NCC2(c3cccc(-c4csc5c(F)cccc45)n3)COC2)ccc1OCCO [Compound 163]"
measurement_kind = "CC50 at 5 days"
experimental_result = "10 to 100 µM"

[[record]]
compound = "COc1cc(C(=O)NCC(O)(c2cc(C(C)(C)N)cc(-c3ccc(F)c(Cl)c3)n2)C(F)(F)F)cc2cccnc12 (centres unmarked) [Compound 321]"
measurement_kind = "CC50 at 5 days"
experimental_result = "10 to 100 µM"

[[record]]
compound = "COc1cc(C(=O)NCC(O)(c2cc(C(C)(C)NC(C)=O)cc(-c3ccc(F)c(Cl)c3)n2)C(F)(F)F)ccc1OC1CC1 (centres unmarked) [Compound 326]"
measurement_kind = "CC50 at 5 days"
experimental_result = "10 to 100 µM"

[[record]]
compound = "COc1cc(C(=O)NCC(=O)c2cc3c(c(-c4c[nH]c5c(F)cccc45)n2)OCC3)ccc1OCCF [Compound 287]"
measurement_kind = "CC50 at 5 days"
experimental_result = "> 100 µM"


Consider the record given below.
Query :: Query (compound): COc1cc(C(=O)NCC(O)(c2ccc(OC)c(-c3ccc(F)c(Cl)c3)n2)C(F)(F)F)ccc1OC1CCNC1=O (centres unmarked) [Compound 349] ; field requested: CC50 at 5 days
Result :: 10 to 100 µM

* * *

So I've got a bunch of molecules here, and I need their IC50 values.
- ASSAYED_SYSTEM: recombinant RSV complex (Human respiratory syncytial virus A, UniProt P28887)
- Sequence (P28887 whole entry): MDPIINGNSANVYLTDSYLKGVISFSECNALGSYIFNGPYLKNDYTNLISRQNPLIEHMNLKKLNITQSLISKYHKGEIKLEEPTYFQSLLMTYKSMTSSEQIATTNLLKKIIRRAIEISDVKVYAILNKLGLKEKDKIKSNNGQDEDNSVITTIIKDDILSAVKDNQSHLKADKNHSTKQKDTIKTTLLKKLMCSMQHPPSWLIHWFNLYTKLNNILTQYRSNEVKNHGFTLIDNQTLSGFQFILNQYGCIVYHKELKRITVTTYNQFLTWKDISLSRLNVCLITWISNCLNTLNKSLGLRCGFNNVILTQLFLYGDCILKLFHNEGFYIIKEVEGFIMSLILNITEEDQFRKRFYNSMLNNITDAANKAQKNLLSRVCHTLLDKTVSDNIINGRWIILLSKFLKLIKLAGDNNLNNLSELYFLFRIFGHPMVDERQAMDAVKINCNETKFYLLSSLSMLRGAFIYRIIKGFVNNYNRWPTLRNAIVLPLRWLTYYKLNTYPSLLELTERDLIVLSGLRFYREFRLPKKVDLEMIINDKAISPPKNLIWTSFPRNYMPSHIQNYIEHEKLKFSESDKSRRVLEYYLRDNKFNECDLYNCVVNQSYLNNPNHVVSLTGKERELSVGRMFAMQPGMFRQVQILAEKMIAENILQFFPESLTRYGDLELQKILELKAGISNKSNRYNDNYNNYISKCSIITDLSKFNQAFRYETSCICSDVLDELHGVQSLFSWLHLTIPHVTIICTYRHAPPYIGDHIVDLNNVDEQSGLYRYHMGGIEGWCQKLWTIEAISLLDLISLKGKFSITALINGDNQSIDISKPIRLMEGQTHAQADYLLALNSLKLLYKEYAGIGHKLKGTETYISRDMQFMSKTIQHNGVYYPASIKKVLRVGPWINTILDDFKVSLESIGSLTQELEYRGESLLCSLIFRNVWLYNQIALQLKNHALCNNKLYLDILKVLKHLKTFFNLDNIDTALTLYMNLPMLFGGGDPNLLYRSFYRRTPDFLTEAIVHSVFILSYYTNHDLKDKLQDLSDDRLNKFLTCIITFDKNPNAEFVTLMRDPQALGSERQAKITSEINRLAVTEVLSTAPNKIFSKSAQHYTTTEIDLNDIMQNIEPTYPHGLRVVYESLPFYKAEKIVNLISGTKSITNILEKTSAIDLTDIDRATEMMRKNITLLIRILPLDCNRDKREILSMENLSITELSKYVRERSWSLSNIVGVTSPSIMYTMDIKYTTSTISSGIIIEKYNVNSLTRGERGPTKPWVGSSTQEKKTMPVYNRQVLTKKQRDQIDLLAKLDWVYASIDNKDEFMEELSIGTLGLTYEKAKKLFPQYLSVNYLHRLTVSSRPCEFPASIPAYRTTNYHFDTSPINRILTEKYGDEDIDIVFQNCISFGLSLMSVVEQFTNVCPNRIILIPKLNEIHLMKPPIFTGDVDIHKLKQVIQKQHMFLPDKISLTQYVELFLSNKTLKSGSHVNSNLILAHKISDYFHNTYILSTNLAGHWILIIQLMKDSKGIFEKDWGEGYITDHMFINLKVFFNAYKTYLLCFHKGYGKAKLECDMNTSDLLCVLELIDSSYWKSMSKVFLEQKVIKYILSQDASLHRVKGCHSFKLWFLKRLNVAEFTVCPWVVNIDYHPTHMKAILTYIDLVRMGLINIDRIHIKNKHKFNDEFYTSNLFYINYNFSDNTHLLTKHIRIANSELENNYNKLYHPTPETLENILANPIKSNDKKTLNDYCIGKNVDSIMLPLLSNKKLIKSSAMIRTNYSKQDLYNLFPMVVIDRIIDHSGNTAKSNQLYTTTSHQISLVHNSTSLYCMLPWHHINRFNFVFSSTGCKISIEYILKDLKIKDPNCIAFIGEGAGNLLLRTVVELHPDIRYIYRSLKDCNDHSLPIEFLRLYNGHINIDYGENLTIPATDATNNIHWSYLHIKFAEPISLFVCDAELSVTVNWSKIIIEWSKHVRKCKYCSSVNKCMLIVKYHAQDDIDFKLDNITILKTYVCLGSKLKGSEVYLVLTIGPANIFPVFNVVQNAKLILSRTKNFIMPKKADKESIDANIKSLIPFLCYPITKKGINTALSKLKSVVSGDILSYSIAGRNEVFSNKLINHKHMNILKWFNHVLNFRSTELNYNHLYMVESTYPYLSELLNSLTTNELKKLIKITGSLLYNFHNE
- Sequence (P03421 whole entry, further chain): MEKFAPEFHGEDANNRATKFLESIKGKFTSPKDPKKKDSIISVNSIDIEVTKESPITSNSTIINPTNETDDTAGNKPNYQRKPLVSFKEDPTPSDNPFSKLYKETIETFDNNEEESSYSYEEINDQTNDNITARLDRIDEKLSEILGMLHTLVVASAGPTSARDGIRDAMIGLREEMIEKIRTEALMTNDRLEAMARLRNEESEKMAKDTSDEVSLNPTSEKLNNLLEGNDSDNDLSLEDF
- MEASUREMENT_NOTES: RSV Polymerase Inhibition Assay
- Assay type: biochemical
- Method: Standard RSV polymerase assays were conducted in the presence of 10 nM recombinant RSV complex in a reaction buffer containing Tris-HCl pH7.5, 6 mM MgCl2, and other additives and substrates including RNA oligonucleotides and radionucleotides. Standard reactions were incubated in 96-well plate format for 2 h at 30° C., in the presence of increasing concentration of inhibitor. The reaction was stopped with 90 μL of 0.1M EDTA, and the reaction product was transferred to a “reading” 96-well plate. […]

// below: answered molecules
[[record]]
molecule = "COc1cc(C(=O)NCC(O)(c2cc3c(c(-c4ccc(F)c(Cl)c4)n2)OCC3(C)C)C(F)(F)F)ccc1OCC(C)O (centres unmarked) [Compound 211]"
experimental_result = "< 1 µM"

[[record]]
molecule = "COc1cc(C(=O)NC[C@@](O)(c2cc3c(c(-c4ccc(C#N)cc4)n2)OC[C@]3(C)N)C(F)(F)F)ccc1OCCO [Compound 604b]"
experimental_result = "< 10 µM"

[[record]]
molecule = "COc1cc(C(=O)NC[C@@](O)(c2cc3c(c(-c4ccc(F)cc4)n2)OCC3(C)CN)C(F)(F)F)ccc1OCCO (some centres unmarked) [Compound 633a]"
experimental_result = "< 1 µM"

[[record]]
molecule = "COc1cc(C(=O)NCC(C)(O)c2nc(-c3ccc(F)c(Cl)c3)c(C)n2C)ccc1OCCF (centres unmarked) [Compound 144]"
experimental_result = "< 100 µM"

[[record]]
molecule = "COc1cc(C(=O)NC[C@@](O)(c2cc(C(C)(C)N)cc(-c3ccc(F)c(Cl)c3)n2)C(F)(F)F)ccc1OCCO [Compound 549]"
experimental_result = "< 1 µM"


// input: 3 molecules below; output: IC50 for each
1. COc1cc(C(=O)NC[C@@](O)(c2cc3c(c(-c4ccc(F)cc4)n2)OC[C@@]3(C)N)C(F)(F)F)ccc1OC[C@@H](C)O [Compound 630]
2. COc1cc(C(=O)NCC(O)(c2cc(C(C)(C)NCCO)cc(-c3ccc(F)c(Cl)c3)n2)C(F)(F)F)ccc1OC1CC1 (centres unmarked) [Compound 502]
3. COc1cc(C(=O)NCC(O)(c2cc(C(C)(C)N)cc(-c3ccc(F)c(Cl)c3)n2)C(F)(F)F)ccc1OCC(F)F (centres unmarked) [Compound 395]

Result ::
["< 1 µM", "< 1 µM", "< 1 µM"]

* * *

- MEASUREMENT_NOTES: Cytotoxicity Determination (CCK-8, without addition of virus)
- Format: cell-based
- CONDITION_LABEL: human, 50% cytotoxicity concentration (CC50)
MEASUREMENT_KIND: CC50 at 5 days

Before answering, review these 2 worked examples.
[[record]]
compound = "COc1cc(C(=O)NCC(O)(c2ccc(OC)c(-c3cnc(Cl)s3)n2)C(F)(F)F)ccc1OCCO (centres unmarked)"
measurement_kind = "CC50 at 5 days"
experimental_result = "10 to 100 µM"

[[record]]
compound = "COc1cc(C(=O)NCC(O)(c2cc3c(c(-c4ccc(C)nc4)n2)OCC3(C)N)C(F)(F)F)ccc1OCCO (centres unmarked)"
measurement_kind = "CC50 at 5 days"
experimental_result = "> 100 µM"


Would you mind giving CC50 at 5 days for every compound in the list below?
1. COc1cc(C(=O)NCC(O)(c2cc3c(c(-c4ccc(Cl)cc4)n2)OCC3(C)N)C(F)(F)F)ccc1CO[C@@H](C)O (some centres unmarked)
2. COc1cc(C(O)CNC(=O)c2ccc(OC)c(OC)c2)nc(-c2csc3c(F)cccc23)n1 (centres unmarked)
3. COc1cc(C(=O)NCC(O)(c2ccc(OC)c(-c3ccc(F)c(Cl)c3)n2)C(C)O)ccc1OC1CC1 (centres unmarked)

Result ::
10 to 100 µM
10 to 100 µM
10 to 100 µM
